# Test system: MDA-MB-231 breast
# procedure_summary: NCI-60 one-dose screen, 48 h (100 = growth as untreated, 0 = no growth, -100 = all killed)
# test_settings: 10 µM unless noted
# Description: Cells are grown in 96 well plates and exposed to the test compound for 48 hours. Compounds are tested at a single concentration, which is 10^-5 M for most compounds. The reported endpoint is percent growth (GI% or GIPRCNT), where numbers from 0 - 100% represent growth inhibition, and numbers from -100% - 0 represent cell death. For example, a value of 40 represents 60% growth inhibition. A value of 0 means no net growth occurred over the course of the experiment. […]
About 83,000 compounds went through this panel and 20% of them were active in at least one assay; those are over-represented in the sample as a whole.

compound: CCN1C(=O)N(CC)C2Nn3c(s/c(=C4\C(=O)Nc5ccccc54)c3=O)=NC21 (stereo not given)
units_label: %
growth: 48.3

compound: O=c1ccn(Cc2cn(-c3c4ccccc4nc4ccccc34)nn2)c(=O)[nH]1
units_label: %
growth: 89.4

compound: NCCCNc1nc2ccccc2c2c(=O)c3cccc(F)c3sc12
units_label: %
growth: 6.07

compound: Cc1cc2nc3cc(C)c(N)cc3[n+](-c3ccccc3)c2cc1N
units_label: %
growth: 90.3

compound: CCOC(=O)CC1C(COC(=O)NC)OC(n2cnc3c(NC(=O)Nc4ccccc4)ncnc32)C1O[Si](C)(C)C(C)(C)C (stereo not given)
units_label: %
growth: 71.7

compound: CCCCCCn1c(-c2ccc(C(=O)O/N=C(\N)c3ccc4c(c3)OCO4)cc2)nc(-c2ccccc2)c1-c1ccccc1
units_label: %
growth: 26.3

compound: O=C(COc1ccc(/C=C2\Cc3ccc(Cl)cc3C2=O)cc1)Nc1nc2ccccc2s1
units_label: %
growth: 96

compound: C/C=C(\C)C(=O)N[C@H]1[C@@H](OC(C)=O)C[C@]2(C)C3CC[C@@]4(C)C(CC[C@@H]4C(C)N(C)C)C3CCC2[C@H]1O (stereo not given in full)
units_label: %
growth: 78

compound: CCN(CC)S(=O)(=O)c1ccc(NC(=O)CSc2nnc(C)n2-c2ccccc2)cc1
units_label: %
growth: 108

compound: COC(=O)c1ccc2[nH]c(O)c(C(=Nc3ccc(N(C)C(=O)CN4CCN(C)CC4)cc3)c3ccccc3)c2c1
units_label: %
growth: 22.6

compound: COc1cccc2c(=O)c3c(sc12)c(NCCCN)nc1ccccc13
units_label: %
growth: 10.3

compound: CC(=O)O.CN1[CH-]N(Cc2ccc(C#N)cc2)c2ccccc21.[Ag+]
units_label: %
growth: 110

compound: COc1ccc(-c2cc(-c3cc(OC)c(OC)c(OC)c3)nc(N3CCOCC3)c2C#N)cc1
units_label: %
growth: 75.3

compound: O=C(Nc1ccc(OS(=O)(=O)c2ccc(F)cc2)cc1)c1ccc(Cl)cc1
units_label: %
growth: 104

compound: O=C(S)CNC(=O)c1ccccc1
units_label: %
growth: 97.6

compound: Cc1cc2nc3ccc(N=Nc4ccc(N(C)C)cc4)cc3n(-c3ccccc3)c-2cc1=N
units_label: %
growth: -27.9

compound: O=C(Nc1ccc(F)cc1F)c1cc(F)ccc1O
units_label: %
growth: 10.8

compound: CC(=O)c1ccc(Nc2nc(C(C)=O)c(C)s2)cc1
units_label: %
growth: 98

compound: Cn1cc(C(=O)c2nc(-c3cn(C)c4ccc(F)cc34)no2)c2cc(F)ccc21
units_label: %
growth: 96.7

compound: COc1ccc(-c2c(C(=O)NS(C)(=O)=O)n(Cc3cccc(C(F)(F)F)c3)c3ccccc23)cc1
units_label: %
growth: 95.5

====

# Test system: UACC-62 melanoma
# procedure_summary: NCI-60 one-dose screen, 48 h (100 = growth as untreated, 0 = no growth, -100 = all killed)
# test_settings: 10 µM unless noted
About 83,000 compounds went through this panel and 20% of them were active in at least one assay; those are over-represented in the sample as a whole. Active and inactive are the calls of the source. The calls were made as follows: active = growth percent below 10; inactive = the rest.

compound: Nc1nc2ccccc2c2c(=O)c3cc(F)ccc3sc12
growth: 102% (inactive)
--
compound: CC(=O)N1N=C(c2ccc(Nc3nc(Nc4ccc(F)cc4)nc(Nc4ccc(Cl)cc4)n3)cc2)CC1c1ccc(Cl)cc1 (centres undefined)
growth: 99% (inactive)
--
compound: CCCCCCn1c(-c2ccc(C(=O)O/N=C(\N)c3ccc4ccccc4c3)cc2)nc(-c2ccccc2)c1-c1ccccc1
growth: 61.1% (inactive)
--
compound: CCCCNC(=O)Oc1ccc(/C(=C(\C)c2ccc(Cl)cc2)c2ccc(OCCN3CCCCC3)cc2)cc1
growth: 83% (inactive)
--
compound: COc1cc(C(=O)/C=C/c2sc(Cl)nc2Cl)cc(OC)c1OC
growth: 85.1% (inactive)
--
compound: C=C1C(=O)O[C@H]2[C@H]1CC/C(COC(=O)CCC(=O)NCCOCCOCC(=O)Nc1ccc(OC)c(C(N)=O)c1O)=C\CC[C@@]1(C)O[C@@H]21
growth: 89.2% (inactive)
--
compound: CN(C(=O)NCc1cccc(F)c1Cl)[C@H](COC(=O)Nc1cc2ccccc2cn1)CC(O)CO (some centres undefined)
growth: 106% (inactive)
--
compound: COc1ccc(C(=O)n2nc(-c3ccccc3)nc2N)cc1OC
growth: 86.7% (inactive)
--
compound: COc1ccc(-c2conc2-c2ccccc2)cc1
growth: 17.8% (inactive)

====

# Tested on: SK-OV-3 ovarian
# procedure_summary: NCI-60 one-dose screen, 48 h (100 = growth as untreated, 0 = no growth, -100 = all killed)
# test_settings: 10 µM unless noted
# Method: Growth inhibition of the SK-OV-3 human tumor cell line is measured as a screen for anti-cancer activity. Cells are grown in 96 well plates and exposed to the test compound for 48 hours. Compounds are tested at a single concentration, which is 10^-5 M for most compounds. The reported endpoint is percent growth (GI% or GIPRCNT), where numbers from 0 - 100% represent growth inhibition, and numbers from -100% - 0 represent cell death. For example, a value of 40 represents 60% growth inhibition. […]
The panel holds about 83,000 compounds, 20% with a hit somewhere; the sample as a whole holds those more often.
property_name: growth (%)

compound: COc1cccc(-c2nc(-c3ccc(NC(=O)C(C)C)cc3)[nH]c2-c2ccnc(Br)c2)c1
target_of_assay: SK-OV-3 ovarian
units_label: %
value_observed: 46.4

compound: O=c1c2cc(F)ccc2sc2c(N3CCNCC3)nc3ccccc3c12
target_of_assay: SK-OV-3 ovarian
units_label: %
value_observed: 84.4

compound: COc1cc(Nc2cn[nH]c2-c2ccc(Cl)cc2)cc(OC)c1OC
target_of_assay: SK-OV-3 ovarian
units_label: %
value_observed: 30.9

compound: CC1CN(C2CCCCC2)C(=S)N(c2ccccc2)C1=O (configuration not stated)
target_of_assay: SK-OV-3 ovarian
units_label: %
value_observed: 116

compound: c1ccc(CO[C@H]2CO[C@H]3[C@@H]2OC[C@@H]3Oc2ccc(Nc3ncnc4ccsc34)cc2)cc1
target_of_assay: SK-OV-3 ovarian
units_label: %
value_observed: 95.8

compound: CCOC(=O)Nc1ccc(C(=O)/C=C/c2ccccc2)cc1
target_of_assay: SK-OV-3 ovarian
units_label: %
value_observed: 110

compound: O=C(/C=C/c1ccc([N+](=O)[O-])o1)NNC(=O)c1cc2ccccc2cc1O
target_of_assay: SK-OV-3 ovarian
units_label: %
value_observed: 32.8

compound: COc1ccc2sc3c(NCCCNCCO)nc4ccccc4c3c(=O)c2c1
target_of_assay: SK-OV-3 ovarian
units_label: %
value_observed: 85.7

compound: COc1ccc(-c2nc3sc(-c4ccccc4)cn3n2)cc1
target_of_assay: SK-OV-3 ovarian
units_label: %
value_observed: 67.8

compound: COc1nc2ccccc2cc1-c1nc2c(cnn2-c2ccccc2)c(=O)[nH]1
target_of_assay: SK-OV-3 ovarian
units_label: %
value_observed: 53.8

compound: O=C1CCC(C(=O)NCCNCCNC(=O)C2CCC(=O)N2)N1 (configuration not stated)
target_of_assay: SK-OV-3 ovarian
units_label: %
value_observed: 98

compound: COc1ccc(/C=C(/C#N)n2nnc3cccc(F)c32)cc1
target_of_assay: SK-OV-3 ovarian
units_label: %
value_observed: 29

compound: NCCCNc1nc2ccc(Cl)cc2c2c(=O)c3cc(F)ccc3sc12
target_of_assay: SK-OV-3 ovarian
units_label: %
value_observed: 89.4

compound: COc1cc(C(=O)/C=C/c2c(Cl)nc3sccn23)cc(OC)c1OC
target_of_assay: SK-OV-3 ovarian
units_label: %
value_observed: 83.3

compound: O=C1c2cccc3cccc(c23)C(=O)N1Nc1nc(N2CCOCC2)nc(N2CCN(c3ccccc3)CC2)n1
target_of_assay: SK-OV-3 ovarian
units_label: %
value_observed: 54.8

compound: c1cc2nc(-c3cn[nH]c3)c3c(c2cc1-c1cn[nH]c1)C1CCC3C1 (configuration not stated)
target_of_assay: SK-OV-3 ovarian
units_label: %
value_observed: 60.2

compound: CCN1C(=O)N(CC)C2Nn3c(s/c(=C4\C(=O)Nc5ccccc54)c3=O)=NC21 (configuration not stated)
target_of_assay: SK-OV-3 ovarian
units_label: %
value_observed: 75.8

compound: COc1ccc2c(c1)c(-c1nn3cc(-c4cccs4)nc3s1)cn2C
target_of_assay: SK-OV-3 ovarian
units_label: %
value_observed: 84.8

compound: CCOC(=O)C1=C(N)Oc2c(sc3c(C)cccc23)C1c1ccc(F)cc1 (configuration not stated)
target_of_assay: SK-OV-3 ovarian
units_label: %
value_observed: 60

compound: COc1cc(C(=O)c2cnc(-c3cccc4[nH]ccc34)[nH]2)cc(OC)c1OC
target_of_assay: SK-OV-3 ovarian
units_label: %
value_observed: 35.6

compound: Cc1ccc(/C=N\NC(=O)c2[nH]c3ccc(F)cc3c2-c2ccccc2)cc1
target_of_assay: SK-OV-3 ovarian
units_label: %
value_observed: 20.4

compound: OC(COc1ccccc1Cl)CN1CCN(c2cccc(Cl)c2)CC1 (configuration not stated)
target_of_assay: SK-OV-3 ovarian
units_label: %
value_observed: 109

compound: COc1ccc(C(=O)/C=C/c2sc(Cl)nc2Cl)cc1
target_of_assay: SK-OV-3 ovarian
units_label: %
value_observed: 39

compound: O=C(Cc1ccc2c(c1)OCCO2)Nc1nc2ccc(F)cc2s1
target_of_assay: SK-OV-3 ovarian
units_label: %
value_observed: 105

compound: O=c1ccc(N=Nc2ccc([N+](=O)[O-])cc2)ccc1O
target_of_assay: SK-OV-3 ovarian
units_label: %
value_observed: 78.6

compound: c1ccc(-c2nc3nonc3nc2-c2ccccc2)cc1
target_of_assay: SK-OV-3 ovarian
units_label: %
value_observed: 74

compound: CNC(C)[C@H]1CCC2C3CCC4C[C@@H](N(C)C(=O)c5ccccc5)CC[C@]4(C)C3CC[C@@]21C (some centres not stated)
target_of_assay: SK-OV-3 ovarian
units_label: %
value_observed: 67

compound: CCCCCCCNC(=O)CCCNc1ncnc2c1ncn2-c1cccc(C(C)O)c1 (configuration not stated)
target_of_assay: SK-OV-3 ovarian
units_label: %
value_observed: 104

compound: Cc1ccc(C(C)C)cc1C(=O)C[n+]1ccccc1
target_of_assay: SK-OV-3 ovarian
units_label: %
value_observed: 97.7

compound: COc1cccc(-c2nn(-c3ccccc3)cc2-c2ccnc(N3CCOCC3)c2)c1
target_of_assay: SK-OV-3 ovarian
units_label: %
value_observed: 87.9

compound: COc1cc2cc(Oc3ccc(NC(=O)Nc4ccc(F)c(C(F)(F)F)c4)cc3)c(C)nc2cc1OCCN1CCOCC1
target_of_assay: SK-OV-3 ovarian
units_label: %
value_observed: 41.3

compound: NCCCNc1nc2ccccc2c2c(=O)c3cc(F)cc(F)c3sc12
target_of_assay: SK-OV-3 ovarian
units_label: %
value_observed: 83.6

compound: COc1ccc(C(=O)n2nc(-c3ccccc3)nc2N)cc1OC
target_of_assay: SK-OV-3 ovarian
units_label: %
value_observed: 80.8

compound: COc1ccc(C(=O)N=Nc2c(O)n(C)c3ccccc23)cc1
target_of_assay: SK-OV-3 ovarian
units_label: %
value_observed: 87.2

compound: COc1ccc(-n2c(N)c(-c3nc4ccccc4[nH]3)cc(C#N)c2=O)cc1
target_of_assay: SK-OV-3 ovarian
units_label: %
value_observed: 111

compound: COc1ccc(-c2cc3c4c(nc5ccccc5c4c2)CC(c2cc(OC)c(OC)c(OC)c2)O3)cc1 (configuration not stated)
target_of_assay: SK-OV-3 ovarian
units_label: %
value_observed: 20.2

compound: C[N+]1=C(/C=C/c2ccc(O)c3ncccc23)C(C)(C)c2ccccc21
target_of_assay: SK-OV-3 ovarian
units_label: %
value_observed: 23

compound: O=c1c2cc(F)ccc2sc2c(N3CCCCC3)nc3ccccc3c12
target_of_assay: SK-OV-3 ovarian
units_label: %
value_observed: 103

compound: O=C(N/N=C/c1ccc(Cl)cc1)c1ccc(C(F)(F)F)nc1Nc1cccc(C(F)(F)F)c1
target_of_assay: SK-OV-3 ovarian
units_label: %
value_observed: 23.8

compound: O=C(Nc1ccc(OS(=O)(=O)c2ccc(F)cc2)cc1)c1ccc(Cl)cc1
target_of_assay: SK-OV-3 ovarian
units_label: %
value_observed: 105

compound: CCOC(=O)/C(C#N)=C\Nc1ccc2ncnc(Nc3ccc(Cl)cc3Cl)c2c1
target_of_assay: SK-OV-3 ovarian
units_label: %
value_observed: 97

compound: O=[N+]([O-])c1ccccc1NCSc1ccc(Cl)cc1
target_of_assay: SK-OV-3 ovarian
units_label: %
value_observed: 109

Source listed as PubChem BioAssay (NCI).
